Test system: B16 cells
RUN DESCRIPTION: Melanin-production test of B16 cells
Assay type: cell-based, mouse
MEASUREMENT SETUP: evaluated concentration 80 µM; culture for 5 days
Method: Experimental Example: Melanin-production test of B16 cells B16 cells (4 x 10⁴) derived from mouse melanoma are suspended in Eagle MBM medium containing bovine fetal serum (10 ml) for culture in the presence of 5% CO₂ at 37°C in 25-cm³ Rou bottle. […] The cells recovered on the filter were measured of their reflection luminous intensity (degree of darkness) at 500 nm with a densitometer.
PROPERTY: Number of cells

> print(dat)
                                   molecule             value
1                      CCCCC=CCCCCCCCC(=O)O  2.5 × 10^4 cells
2                     CCCCC=CCC=CCCCCC(=O)O  2.5 × 10^4 cells
3                      CCC=CCC=CCCCCCC(=O)O  2.4 × 10^4 cells
4                         CCCC=CCCCCCC(=O)O  2.7 × 10^4 cells
5  CC=CCCCCC(=O)OCC(O)CO (stereo not drawn)  2.6 × 10^4 cells

Number of cells measured on CCCCCCC=CCC=CCCCCC(=O)O = 2.4 × 10^4 cells

Number of cells measured on CCC=CCCCCCCCC(=O)OCC(O)CO (stereo not drawn) = 2.7 × 10^4 cells

Number of cells measured on CCCCCC/C=C\CCCCCCCC(=O)OC(CO)CO = 2.1 × 10^4 cells

Number of cells measured on CCCCC=CCCCCCCCCC(=O)O = 2.6 × 10^4 cells

Number of cells measured on CCCC/C=C\CCCCCCCC(=O)OCC(O)COC(=O)CCCCCCC/C=C\CCCC = 2.0 × 10^4 cells

Number of cells measured on CCCCCCC=CCCCCCCCCC(=O)OCC(COC(=O)CCCCCCCCC=CCCCCCC)OC(=O)CCCCCCCCC=CCCCCCC (stereo not drawn) = 2.7 × 10^4 cells

Number of cells measured on CCCCCC/C=C/CCCCCCCC(=O)OC[C@H](COP(=O)([O-])OCC[N+](C)(C)C)OC(=O)CCCCCCC/C=C/CCCCCC = 2.7 × 10^4 cells

Number of cells measured on CCCCC=CCCCCCCCCC(=O)OC = 2.7 × 10^4 cells

Number of cells measured on CCCCCC/C=C\CCCCCCCC(=O)OCC(COC(=O)CCCCCCC/C=C\CCCCCC)OC(=O)CCCCCCC/C=C\CCCCCC = 2.1 × 10^4 cells

Number of cells measured on CCCCCCC=CCCCCCCCCC(=O)OCC(O)CO (stereo not drawn) = 2.0 × 10^4 cells

Number of cells measured on CCCC/C=C\CCCCCCCC(=O)OCC(CO)OC(=O)CCCCCCC/C=C\CCCC (stereo not drawn) = 2.5 × 10^4 cells

Number of cells measured on CCCC/C=C\CCCCCCCC(=O)OC = 2.6 × 10^4 cells

Number of cells measured on CCCCC=CCCCCCCCCC(=O)OCC(CO)OC(=O)CCCCCCCCC=CCCCC (stereo not drawn) = 2.5 × 10^4 cells

----------
Each entry below carries its reported Number of cells.
Tested on: B16 cells
RUN DESCRIPTION: Melanin-production test of B16 cells
Assay type: cell-based, mouse
MEASUREMENT SETUP: evaluated concentration 80 µM; culture for 5 days

Worked examples follow.
> print(dat)
                                   compound             value
1                        CCC=CCCCCCCCC(=O)O  2.7 × 10^4 cells
2  CCCC/C=C\CCCCCCCC(=O)OCC(O)CO (centres unmarked)  2.5 × 10^4 cells
3                    CCCCCCC=CCCCCCCCC(=O)O  3.2 × 10^4 cells
4  CCCCCC/C=C\CCCCCCCC(=O)OCC(CO)OC(=O)CCCCCCC/C=C\CCCCCC (centres unmarked)  2.2 × 10^4 cells
5  CCCCC=CCCCCCCCCC(=O)OCC(COC(=O)CCCCCCCCC=CCCCC)OC(=O)CCCCCCCCC=CCCCC (centres unmarked)  2.2 × 10^4 cells

Number of cells measured on CCCC=CCCCCCC(=O)OC(CO)CO = 2.5 × 10^4 cells

Number of cells measured on CCCCCCC=CCCCCCCCCC(=O)OC = 2.5 × 10^4 cells
